This collection of values is drawn from paper PMC10892041.

# target-or-system: PP2A (Homo sapiens, UniProt P67775)
# Sequence (P67775 whole entry): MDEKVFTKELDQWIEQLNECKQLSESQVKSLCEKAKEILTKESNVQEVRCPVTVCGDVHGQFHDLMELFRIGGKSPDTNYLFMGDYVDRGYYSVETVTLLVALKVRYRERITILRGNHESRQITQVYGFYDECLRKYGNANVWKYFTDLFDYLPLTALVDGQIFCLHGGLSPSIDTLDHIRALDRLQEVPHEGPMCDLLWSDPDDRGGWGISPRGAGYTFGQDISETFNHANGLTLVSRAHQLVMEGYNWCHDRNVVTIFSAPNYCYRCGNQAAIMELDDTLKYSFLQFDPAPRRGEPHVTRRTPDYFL
# experimental-details: Inhibition of human recombinant non-tyrosine phosphatase PP2A (DiFMUP)
# Format: biochemical
# measurement-context: 10 µM
# Protocol: For the inhibition assay of non-tyrosine phosphatases, human recombinant proteins were used (Sigma-Aldrich). The reactions were performed in black opaque 384-well microplates (PerkinElmer). […] Samples were incubated for 180 min at 23 °C, and then the measurements of fluorescence intensity (excitation 355 and emission 560 nm) were performed on a multifunctional plate reader POLARstar Omega (BMG Labtech). […]
Lab note: compare Inhibition of PP2A, percentage inhibition of control ± SD with 60%, writing 1 if less and 0 if equal or more.

{"compound": "CC(CC(=S)Nc1ccccc1)=NC(Cc1ccccc1)C(=O)[O][V](=[O])([Cl])[Cl] (stereo not drawn) [VC059, [VOCl2(L2)]·0.5Et2O·1.5HCl]", "assigned-label": 1}
{"compound": "O=S(=O)([O-])[O-].[O]=[V+2] [VOSO4, reference compound]", "assigned-label": 1}
{"compound": "CC(CC(=S)Nc1ccccc1)=NC(Cc1c[nH]c2ccccc12)C(=O)[O][V](=[O])([Cl])[Cl] (stereo not drawn) [VC054, [VOCl2(L1)]·1.5Et2O ·6.5HCl]", "assigned-label": 0}
{"compound": "Cc1occc(=O)c1[O-].Cc1occc(=O)c1[O-].[O]=[V+2] [BMOV, bis(maltolato)oxidovanadium(IV), reference compound]", "assigned-label": 0}
{"compound": "[O]=[V]1[O]C(c2ccc(Cl)cc2)=NN=Cc2cc(Br)ccc2[O]1.c1cnc2c(c1)ccc1cccnc12 [VC050, [VO(L11)(phen)]]", "assigned-label": 1}
{"compound": "O=C(NN=Cc1cc(Br)ccc1[O-])c1ccc([N+](=O)[O-])cc1.O=[N+]([O-])c1ccc(C([O-])=NN=Cc2cc(Br)ccc2[O-])cc1.[V+3] [VC068, [V(L13)(HL13)]]", "assigned-label": 1}
